Test system: UO-31
ASSAY_NAME: NCI tumour cell line growth inhibition, 48 h
Active and inactive are the calls of the source. No stated cut-off is given here; in the data, active = GI50 up to about 1.1 µM and inactive = higher.
Returns: one label drawn from true (1) for active, false (0) for inactive

Worked examples follow.
{"COMPOUND": "O=S(=O)(N1CCCCN(S(=O)(=O)C(F)(F)F)CCCN(S(=O)(=O)C(F)(F)F)CCCN(S(=O)(=O)C(F)(F)F)CCCCN(S(=O)(=O)C(F)(F)F)CCCN(S(=O)(=O)C(F)(F)F)CCC1)C(F)(F)F", "GROUP": "false (0)"}
{"COMPOUND": "CCOC(=O)C1CCCN1C(=O)c1ccccc1Cl (centres undefined)", "GROUP": "false (0)"}
{"COMPOUND": "O=C(/C=C/c1cccc(Br)c1)c1cccs1", "GROUP": "false (0)"}
{"COMPOUND": "CCOC(=O)c1ccc(NC2Oc3cc4c(cc3C(c3cc(OC)c(OC)c(OC)c3)C2C)OCO4)cc1 (centres undefined)", "GROUP": "true (1)"}

Could you kindly confirm the outcome this assay logged for CC(=O)O[C@H]1C[C@H](O[C@H]2[C@@H](O)C[C@H](O[C@H]3[C@@H](O)C[C@H](O[C@H]4CC[C@@]5(C)[C@H](CC[C@@H]6[C@@H]5C[C@@H](O)[C@]5(C)[C@@H](C7=CC(=O)OC7)CC[C@]65O)C4)O[C@@H]3C)O[C@@H]2C)O[C@H](C)[C@H]1O[C@@H]1O[C@H](CO)[C@@H](O)[C@H](O)[C@H]1O [LANATOSIDE C] ?
true (1)

Could you kindly confirm the outcome this assay logged for COC(=O)C1CCC(=O)N1C(c1cc(OC)c(OC)c(OC)c1)c1cccc2ccccc12 (centres undefined) ?
false (0)
